Molecular target: ASIC2a/t-ASIC2b (Rattus norvegicus, UniProt A0A0G3F2N6+Q62962)
Construct: X. laevis oocytes injected with 3 ng Asic2a + 6 ng Asic2b-type cRNA; t-ASIC2b lacks first 71 N-terminal residues; heterotrimer, stoichiometry unknown (mix with 0, 1 or 2 t-ASIC2b)
Sequence (A0A0G3F2N6 1-492): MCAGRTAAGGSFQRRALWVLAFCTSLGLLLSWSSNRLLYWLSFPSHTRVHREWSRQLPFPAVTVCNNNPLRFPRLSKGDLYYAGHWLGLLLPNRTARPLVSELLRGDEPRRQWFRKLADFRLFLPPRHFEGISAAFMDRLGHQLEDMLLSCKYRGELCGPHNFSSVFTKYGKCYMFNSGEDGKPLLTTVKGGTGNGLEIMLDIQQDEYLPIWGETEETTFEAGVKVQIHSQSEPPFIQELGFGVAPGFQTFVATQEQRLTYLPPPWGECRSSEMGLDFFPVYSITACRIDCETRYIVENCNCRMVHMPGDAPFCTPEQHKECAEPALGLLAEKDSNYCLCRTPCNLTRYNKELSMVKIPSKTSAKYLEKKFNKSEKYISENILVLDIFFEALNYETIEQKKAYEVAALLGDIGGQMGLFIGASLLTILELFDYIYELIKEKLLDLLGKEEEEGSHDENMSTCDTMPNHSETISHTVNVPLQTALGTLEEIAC
Sequence (Q62962 1-563 isoform Q62962-2): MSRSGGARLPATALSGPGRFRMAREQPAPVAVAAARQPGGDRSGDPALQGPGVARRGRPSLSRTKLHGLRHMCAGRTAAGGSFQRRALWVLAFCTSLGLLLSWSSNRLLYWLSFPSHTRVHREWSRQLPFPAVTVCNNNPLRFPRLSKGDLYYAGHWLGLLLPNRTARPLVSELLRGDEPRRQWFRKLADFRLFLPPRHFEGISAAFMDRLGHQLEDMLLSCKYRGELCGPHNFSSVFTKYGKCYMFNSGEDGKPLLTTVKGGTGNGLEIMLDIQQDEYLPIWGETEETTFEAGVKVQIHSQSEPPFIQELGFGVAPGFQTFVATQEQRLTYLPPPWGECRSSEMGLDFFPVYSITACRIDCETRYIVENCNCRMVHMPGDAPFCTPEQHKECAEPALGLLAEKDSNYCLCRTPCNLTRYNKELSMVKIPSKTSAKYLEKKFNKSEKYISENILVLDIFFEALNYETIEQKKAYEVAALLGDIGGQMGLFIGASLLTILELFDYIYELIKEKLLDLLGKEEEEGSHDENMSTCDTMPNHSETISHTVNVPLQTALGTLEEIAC
Assay: two-electrode voltage clamp, X. laevis oocytes
assayReadout: IC50

Prompt: Please report the measured IC50 for N=C(N)NC(=O)c1nc(Cl)c(N)nc1N [amiloride]
Response: ~50 µM
